Each recorded value in this set is attributed to patent US8765748B2.

# Tested on: MDA-MB-468 basal breast cancer cell line
# PROTOCOL_DESCRIPTION: Cell growth inhibition, Sulforhodamine B assay (SRB)
# Assay type: cell-based
# ASSAY_CONTEXT: Homo sapiens, MDA-MB-468, 120 h; 5 days culture, SRB; read-out: Cell Line GI50 Range, MDA-MB-468
RECORDED_METRIC: GI50

Reference set, count: 4
Ask | Determine from records and report GI50 for CN1CCN(c2ccc(-c3n[nH]c4cc(C=C5C(=O)Nc6ccc(Br)cc65)ccc34)cn2)CC1 (mixture of isomers) [Example A150]
Reply | < 5 µM

Ask | Look up and state reported GI50 for Nc1ccc2c(c1)/C(=C\c1ccc3[nH]nnc3c1)C(=O)N2 [Example A2]
Reply | 5 to 20 µM

Ask | In one line, give reported GI50 of the entry O=C1Nc2ccc(Cl)cc2/C1=C\c1ccc2c(/C=C/c3ccncc3)n[nH]c2c1 [Example A84] .
Reply | < 5 µM

Ask | Name the recorded GI50 of the compound listed here: O=C1Nc2ccccc2/C1=C\c1ccc2c(-c3cccs3)n[nH]c2c1 [Example A91]
Reply | < 5 µM

Others:
Ask | Using known records, supply GI50 for CN(C)Cc1ccc(/C=C/c2n[nH]c3cc(C=C4C(=O)Nc5ccccc54)ccc23)cc1 (mixture of isomers) [Example A106, 2,2,2-trifluoroacetate]
Reply | < 5 µM

----------
# EXPERIMENTAL_TARGET: Lyn (Homo sapiens, UniProt P07948)
# Sequence (P07948 whole entry): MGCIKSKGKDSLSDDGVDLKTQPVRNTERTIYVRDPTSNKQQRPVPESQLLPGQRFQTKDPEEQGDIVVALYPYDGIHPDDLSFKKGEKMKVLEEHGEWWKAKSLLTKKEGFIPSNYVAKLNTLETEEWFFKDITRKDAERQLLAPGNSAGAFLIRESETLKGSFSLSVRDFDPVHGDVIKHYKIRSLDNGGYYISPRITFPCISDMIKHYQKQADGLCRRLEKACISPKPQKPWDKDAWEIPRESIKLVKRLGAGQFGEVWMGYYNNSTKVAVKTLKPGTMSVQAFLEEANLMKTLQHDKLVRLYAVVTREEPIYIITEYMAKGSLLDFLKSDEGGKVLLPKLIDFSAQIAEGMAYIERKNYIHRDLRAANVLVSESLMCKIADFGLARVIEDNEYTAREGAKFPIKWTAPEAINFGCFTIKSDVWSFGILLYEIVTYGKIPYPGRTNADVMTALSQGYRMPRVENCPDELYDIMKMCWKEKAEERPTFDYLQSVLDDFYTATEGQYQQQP
pIC50: −log10 of the molar value.
Here, each record is paired with measured pIC50 data.

Ask | Please list pIC50 recorded for the molecule O=C1Nc2ccccc2/C1=C\c1ccc2c(/C=C/c3ccncc3)n[nH]c2c1 [Example A57]
Reply | > 5.30

Ask | Complete the entry with pIC50 for COc1ccc2c(c1)C(=Cc1ccc3c(-c4ccc(N5CCN(C)CC5)nc4)n[nH]c3c1)C(=O)N2 (mixture of isomers) [Example A97]
Reply | 4.30 to 5.30

Ask | Hello, please tell me recorded pIC50 for this one: CN(C)Cc1ccc(/C=C/c2n[nH]c3cc(C=C4C(=O)Nc5ccccc54)ccc23)cc1 (mixture of isomers) [Example A106, 2,2,2-trifluoroacetate]
Reply | > 5.30

---
Ask | Let me know recorded pIC50 for O=C1Nc2ccccc2C1=Cc1ccc2c(/C=C/c3ccccn3)n[nH]c2c1 (mixture of isomers) [Example A41] , thanks.
Reply | > 5.30

----------
Attribute: inhibition at 10 µM
# EXPERIMENTAL_TARGET: CDC2/CDK1 (cycB) (Homo sapiens, UniProt P06493)
# Construct: CEREP, France (ran the assays)
# Sequence (P06493 whole entry): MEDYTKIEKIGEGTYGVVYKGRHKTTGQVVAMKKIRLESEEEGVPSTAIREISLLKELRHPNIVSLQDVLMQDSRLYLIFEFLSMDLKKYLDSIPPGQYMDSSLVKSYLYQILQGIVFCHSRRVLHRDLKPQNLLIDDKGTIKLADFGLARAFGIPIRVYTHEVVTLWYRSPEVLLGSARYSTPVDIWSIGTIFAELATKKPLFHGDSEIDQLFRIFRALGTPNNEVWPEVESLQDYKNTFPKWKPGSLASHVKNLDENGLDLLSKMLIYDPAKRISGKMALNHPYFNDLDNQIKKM
# Sequence (P14635 whole entry partner): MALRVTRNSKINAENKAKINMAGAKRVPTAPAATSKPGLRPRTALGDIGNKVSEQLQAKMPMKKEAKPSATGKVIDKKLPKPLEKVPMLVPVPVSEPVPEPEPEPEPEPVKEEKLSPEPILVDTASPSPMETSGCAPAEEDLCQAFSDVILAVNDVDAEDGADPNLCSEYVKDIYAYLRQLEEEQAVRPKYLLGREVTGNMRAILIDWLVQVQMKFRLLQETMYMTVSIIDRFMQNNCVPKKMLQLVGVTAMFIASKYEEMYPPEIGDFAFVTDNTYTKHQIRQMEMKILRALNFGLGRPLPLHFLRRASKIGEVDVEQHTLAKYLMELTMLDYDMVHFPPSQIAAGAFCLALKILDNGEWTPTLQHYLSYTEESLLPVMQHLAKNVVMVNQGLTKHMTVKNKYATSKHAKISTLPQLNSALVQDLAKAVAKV
# PROTOCOL_DESCRIPTION: Kinase Selectivity Assay (CEREP, HTRF)
# Assay type: biochemical
# ASSAY_CONTEXT: read-out: % Inhibition at 10 μM Concentration, CDC2/CDK1
A number alone suffices; assume %.

Ask | Recall and state the measured inhibition at 10 µM for `O=C1Nc2ccccc2/C1=C\c1ccc2[nH]nnc2c1` .
Reply | 2

Ask | Supply recorded inhibition at 10 µM for O=C1Nc2ccccc2C1=Cc1ccc2c(/C=C/c3ccccn3)n[nH]c2c1 (mixture of isomers) here.
Reply | 62

Ask | Specify inhibition at 10 µM for COc1ccc2c(c1)C(=Cc1ccc3c(-c4ccc(N5CCN(C)CC5)nc4)n[nH]c3c1)C(=O)N2 (mixture of isomers) and stop.
Reply | 15

Ask | Supply inhibition at 10 µM value. Item: `O=C1Nc2ccccc2/C1=C\c1ccc2cn[nH]c2c1`
Reply | 9

New cases:
Ask | Entry `O=C1Nc2ccccc2/C1=C\c1ccc2c(/C=C/c3ccccc3Cl)n[nH]c2c1` needs its inhibition at 10 µM filled in; supply it.
Reply | 18
